// data source = patent US20210238260

Task for the reader: assign each of the following proteins its reported KM.
# tested_system: Factor X (FX), P00742
# Sequence (P00742 whole entry, looked up): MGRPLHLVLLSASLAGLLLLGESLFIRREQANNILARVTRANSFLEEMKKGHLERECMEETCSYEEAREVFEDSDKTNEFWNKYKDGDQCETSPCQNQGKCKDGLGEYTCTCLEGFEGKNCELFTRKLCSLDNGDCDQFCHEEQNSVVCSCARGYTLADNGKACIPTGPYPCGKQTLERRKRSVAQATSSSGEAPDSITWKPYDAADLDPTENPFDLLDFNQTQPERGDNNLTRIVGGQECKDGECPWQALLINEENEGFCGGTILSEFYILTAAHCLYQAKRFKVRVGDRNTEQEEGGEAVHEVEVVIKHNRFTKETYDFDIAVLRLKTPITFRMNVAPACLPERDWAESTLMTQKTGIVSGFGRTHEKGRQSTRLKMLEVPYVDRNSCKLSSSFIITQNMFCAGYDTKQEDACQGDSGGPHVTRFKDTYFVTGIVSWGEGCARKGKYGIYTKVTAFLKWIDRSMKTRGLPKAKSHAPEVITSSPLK
Note: unit µM is implicit; provide only the numeric part.

Looking up FIXa-Y155F/N260S/R338E/T343R/R403E (protein) chain 1: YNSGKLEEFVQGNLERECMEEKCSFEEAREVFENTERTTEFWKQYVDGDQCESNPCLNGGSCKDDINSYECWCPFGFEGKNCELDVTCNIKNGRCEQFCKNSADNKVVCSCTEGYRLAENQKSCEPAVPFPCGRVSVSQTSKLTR chain 2: VVGGEDAKPGQFPWQVVLNGKVDAFCGGSIVNEKWIVTAAHCVETGVKITVVAGEHNIEETEHTEQKRNVIRIIPHHNYSAAINKYNHDIALLELDEPLVLNSYVTPICIADKEYTNIFLKFGSGYVSGWGRVFHKGRSALVLQYLRVPLVDRATCLESTKFRIYNNMFCAGFHEGGRDSCQGDSGGPHVTEVEGTSFLTGIISWGEECAMKGKYGIYTKVSEYVNWIKEKTKLT , I found its KM recorded as 0.0692

Looking up FIXa-K247N/N249S/R318Y/T343R/R403E/E410N (protein) chain 1: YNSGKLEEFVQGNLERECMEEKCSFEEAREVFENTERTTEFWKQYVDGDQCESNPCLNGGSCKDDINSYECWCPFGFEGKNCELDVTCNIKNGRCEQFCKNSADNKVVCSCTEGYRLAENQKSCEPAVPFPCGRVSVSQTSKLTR chain 2: VVGGEDAKPGQFPWQVVLNGKVDAFCGGSIVNEKWIVTAAHCVETGVKITVVAGEHNIEETEHTEQNRSVIRIIPHHNYNAAINKYNHDIALLELDEPLVLNSYVTPICIADKEYTNIFLKFGSGYVSGWGRVFHKGYSALVLQYLRVPLVDRATCLRSTKFRIYNNMFCAGFHEGGRDSCQGDSGGPHVTEVEGTSFLTGIISWGEECAMKGKYGIYTKVSEYVNWIKNKTKLT , I found its KM recorded as 0.0805

Looking up FIXa-K247N/N249S/N260S (protein) chain 1: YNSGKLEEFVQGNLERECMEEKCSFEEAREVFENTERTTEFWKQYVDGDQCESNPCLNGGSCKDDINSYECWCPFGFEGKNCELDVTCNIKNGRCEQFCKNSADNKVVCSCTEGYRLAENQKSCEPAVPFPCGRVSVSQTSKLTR chain 2: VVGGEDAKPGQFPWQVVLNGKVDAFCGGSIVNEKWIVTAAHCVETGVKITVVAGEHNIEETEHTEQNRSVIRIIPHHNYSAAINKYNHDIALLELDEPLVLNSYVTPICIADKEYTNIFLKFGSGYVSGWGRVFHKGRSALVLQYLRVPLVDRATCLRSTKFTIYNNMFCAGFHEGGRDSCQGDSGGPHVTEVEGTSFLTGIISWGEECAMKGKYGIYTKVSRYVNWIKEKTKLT , I found its KM recorded as 0.114

Looking up FIXa-Y155F/K247N/N249S/R338E/T343R/R403E (protein) chain 1: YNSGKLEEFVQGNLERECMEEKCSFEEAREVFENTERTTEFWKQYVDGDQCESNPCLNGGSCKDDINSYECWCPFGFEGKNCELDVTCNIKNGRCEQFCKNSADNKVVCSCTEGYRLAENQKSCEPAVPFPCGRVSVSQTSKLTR chain 2: VVGGEDAKPGQFPWQVVLNGKVDAFCGGSIVNEKWIVTAAHCVETGVKITVVAGEHNIEETEHTEQNRSVIRIIPHHNYNAAINKYNHDIALLELDEPLVLNSYVTPICIADKEYTNIFLKFGSGYVSGWGRVFHKGRSALVLQYLRVPLVDRATCLESTKFRIYNNMFCAGFHEGGRDSCQGDSGGPHVTEVEGTSFLTGIISWGEECAMKGKYGIYTKVSEYVNWIKEKTKLT , I found its KM recorded as 0.0251
